src = paper PMC4113814

System: TNF-α
TEST DETAILS: TNF-α release in supernatants of LPS-treated primary microglial cells (ELISA)
Format: cell-based, Wistar rats
CONDITION: C2: 2.5 μg/mL, 72 h, LPS-treated
Procedure: Primary microglial cell cultures were prepared from brains of newborn Wistar rats. […] After 72 h of incubation, cells were counted, and 2.5 mL of the supernatants were collected from each well and frozen at −40 °C for cytokine analyses. […] The supernatants obtained from cell cultures were analyzed for TNF-α, IL-1β, IL-4, IL-6, IL-8, IL-10 and IL-18 using commercially available ELISA kits following the manufacturers’ instructions. […]
# TNF-α release values compiled below
Output spec: scalar in pg/mL, unitless text.

Worked set:
INSERT INTO measurements (molecule, target_or_test_system, experimental_endpoint, quantity_unit, number) VALUES
  ('C=C(C)[C@@H]1CC(=O)[C@H]2[C@H](C1)[C@@H]1C(=O)O[C@@H]3C[C@@]4(C)O[C@H]2C(=O)[C@@H]4[C@H]13 [Compound 6, ineleganolide]', 'TNF-α', 'TNF-α release', 'pg/mL', 30.6),
  ('C=C(C)[C@@H]1C/C=C2\C(=O)O[C@@H](C[C@]3(C)CC(=O)[C@@H](CC(=O)C1)O3)[C@@H]2O [Compound 2, sinuleptolide]', 'TNF-α', 'TNF-α release', 'pg/mL', 12.3),
  ('C=C(C)[C@@H]1C/C=C2\C(=O)O[C@@H](C[C@]3(C)CC(=O)[C@H](CC(=O)C1)O3)[C@@H]2O [Compound 1, 5-epi-sinuleptolide]', 'TNF-α', 'TNF-α release', 'pg/mL', 31.2),
  ('C=C(C)[C@@H]1C/C=C(\C(=O)OC)CC(=O)C[C@]2(C)CC(=O)[C@H](CC(=O)C1)O2', 'TNF-α', 'TNF-α release', 'pg/mL', 29.8);

Q: Which value of TNF-α release has been reported for C=C(C)C1CCC23OC2C(CC2(C)CC(=O)C(CC(=O)C1)O2)OC3=O (centres unmarked) [Compound 3, scabrolide D] in the records?
Result: 24.5

###

System: CHIKV replicon
TEST DETAILS: CHIKV replicon assay, Cell-IQ live cell imaging, EGFP fluorescence intensity
CONDITION: 50 and 100 μM, 48 h
EXPERIMENTAL ENDPOINT: decrease in EGFP marker fluorescence intensity

INSERT INTO measurements (molecule, result) VALUES
  ('C=C(C)[C@@H]1CC(=O)[C@H]2[C@H](C1)[C@@H]1C(=O)O[C@@H]3C[C@@]4(C)O[C@H]2C(=O)[C@@H]4[C@H]13 [Compound 6, ineleganolide]', 'only moderate decreases'),
  ('C=C1/C=C/[C@H](C(C)C)CCC(=C)[C@H](O)CC1', 'only moderate decreases');

###

Reported IC50 values for the following compounds.
Test system: IL-18
TEST DETAILS: IL-18 release in supernatants of LPS-treated primary microglial cells (ELISA)
Format: cell-based, Wistar rats
CONDITION: Rattus norvegicus; inhibition of LPS-induced cytokine release, 72 h; read-out: IL-18 IC50

Worked examples, 2 compounds total:
INSERT INTO results (compound, result) VALUES
  ('C=C(C)[C@@H]1C/C=C2\C(=O)O[C@@H](C[C@]3(C)CC(=O)[C@H](CC(=O)C1)O3)[C@@H]2O [Compound 1, 5-epi-sinuleptolide]', '> 12.5 µg/mL'),
  ('C=C(C)[C@@H]1CC(=O)[C@H]2[C@H](C1)[C@@H]1C(=O)O[C@@H]3C[C@@]4(C)O[C@H]2C(=O)[C@@H]4[C@H]13 [Compound 6, ineleganolide]', '> 12.5 µg/mL');

Q: What IC50 value was documented for this compound, C=C(C)C1CCC23OC2C(CC2(C)CC(=O)C(CC(=O)C1)O2)OC3=O (stereo not shown) [Compound 3, scabrolide D] ?
Result: > 12.5 µg/mL

Q: Consider the compound C=C(C)[C@@H]1C/C=C2\C(=O)O[C@@H](C[C@]3(C)CC(=O)[C@@H](CC(=O)C1)O3)[C@@H]2O [Compound 2, sinuleptolide] and give its measured IC50.
Result: 2.9 µg/mL
